- procedure details: MTS assay, metabolic inhibition
- Assay type: cell-based, mouse
Square brackets hold non-standard residues; d marks the D form. Peptide text beside a SMILES is read from it. Nspe = C[C@H](NCC(=O)O)c1ccccc1; Nlys = NCCCCNCC(=O)O
parameter measured: pIC50
Please treat pIC50 as minus the base-10 logarithm of the molar concentration.

Record excerpt, results attached:
The reported value for C[C@@H](c1ccccc1)N(CC(N)=O)C(=O)CN(Cc1ccccc1)C(=O)CN(CCCCN)C(=O)CN(Cc1ccccc1)C(=O)CN(Cc1ccccc1)C(=O)CN(CCCCN)C(=O)CN(Cc1ccccc1)C(=O)CN(Cc1ccccc1)C(=O)CN(CCCCN)C(=O)CN(Cc1ccccc1)C(=O)CN(Cc1ccccc1)C(=O)CNCCCCN in terms of pIC50 is 4.82

The reported value for C[C@H](NCC(=O)N(CC(=O)N(CCCCN)CC(=O)N(CC(=O)N(CC(=O)N(CCCCN)CC(=O)N(CC(=O)N(CC(=O)N(CCCCN)CC(=O)N(CC(=O)N(CC(=O)N(CCCCN)CC(N)=O)[C@@H](C)c1ccccc1)[C@@H](C)c1ccccc1)[C@@H](C)c1ccccc1)[C@@H](C)c1ccccc1)[C@@H](C)c1ccccc1)[C@@H](C)c1ccccc1)[C@@H](C)c1ccccc1)c1ccccc1 [1C, H-(Nspe-Nspe-Nlys)4-NH2] (H-[Nspe][Nspe][Nlys][Nspe][Nspe][Nlys][Nspe][Nspe][Nlys][Nspe][Nspe][Nlys]-NH2) in terms of pIC50 is 5.25

The reported value for C[C@H](NCC(=O)N(CC(=O)N(CCCCN)CC(=O)N(CC(=O)N(CCCCN)CC(=O)N(CC(=O)N(CCCCN)CC(=O)N(CC(=O)N(CC(=O)N(CC(=O)N(CC(=O)N(CCCCN)CC(N)=O)[C@@H](C)c1ccccc1)[C@@H](C)c1ccccc1)[C@@H](C)c1ccccc1)[C@@H](C)c1ccccc1)[C@@H](C)c1ccccc1)[C@@H](C)c1ccccc1)[C@@H](C)c1ccccc1)c1ccccc1 [1scr, H-(Nspe)2-(Nlys-Nspe)3-(Nspe)3-Nlys-NH2] (H-[Nspe][Nspe][Nlys][Nspe][Nlys][Nspe][Nlys][Nspe][Nspe][Nspe][Nspe][Nlys]-NH2) in terms of pIC50 is 5.07

Further cases:
The reported value for CC(C)[C@H](C)N(CC(N)=O)C(=O)CN(C(=O)CN(CCCCN)C(=O)CN(C(=O)CN(C(=O)CN(CCCCN)C(=O)CN(C(=O)CN(C(=O)CN(CCCCN)C(=O)CN(C(=O)CN(C(=O)CNCCCCN)[C@@H](C)C(C)C)[C@@H](C)C(C)C)[C@@H](C)C(C)C)[C@@H](C)C(C)C)[C@@H](C)C(C)C)[C@@H](C)C(C)C)[C@@H](C)C(C)C in terms of pIC50 is 4.19

---

Readings of MIC Staphylococcus aureus VAN1 for the listed compounds
- System: Staphylococcus aureus VAN1
- Assay type: cell-based
- condition description: VAN1
Numbered stars: 1 amine (or outer) side, 2 acyl side, 3 side chain; on linkers, the order of the positions; unused ones are H or OH. Square brackets hold non-standard residues; d marks the D form. Peptide text beside a SMILES is read from it. X1 = CC(C)[C@H](C)N(CC(=O)[*:2])[*:1]; Nspe = C[C@H](NCC(=O)O)c1ccccc1; Nphe = O=C(O)CNCc1ccccc1; Nlys = NCCCCNCC(=O)O
Respond numerically; units are µM and should not be typed.

Record excerpt, results attached:
The reported value for C[C@@H](c1ccccc1)N(CC(N)=O)C(=O)CN(C(=O)CN(CCCCN)C(=O)[C@@H]1CCCN1C(=O)CN(C(=O)CN(CCCCN)C(=O)CN(C(=O)CN(C(=O)CN(CCCCN)C(=O)CN(C(=O)CN(C(=O)CNCCCCN)[C@@H](C)c1ccccc1)[C@@H](C)c1ccccc1)[C@@H](C)c1ccccc1)[C@@H](C)c1ccccc1)[C@@H](C)c1ccccc1)[C@@H](C)c1ccccc1 [1-Pro9] (H-[Nlys][Nspe][Nspe][Nlys][Nspe][Nspe][Nlys][Nspe]P[Nlys][Nspe][Nspe]-NH2) in terms of MIC Staphylococcus aureus VAN1 is 4.6

The reported value for C[C@@H](c1ccccc1)N(CC(N)=O)C(=O)CN(Cc1ccccc1)C(=O)CN(CCCCN)C(=O)CN(C(=O)CN(Cc1ccccc1)C(=O)CN(CCCCN)C(=O)CN(C(=O)CN(Cc1ccccc1)C(=O)CN(CCCCN)C(=O)CN(C(=O)CN(Cc1ccccc1)C(=O)CNCCCCN)[C@@H](C)c1ccccc1)[C@@H](C)c1ccccc1)[C@@H](C)c1ccccc1 [1-Npm2,5,8,11, H-(Nlys-Npm-Nspe)4-NH2] (H-[Nlys][Nphe][Nspe][Nlys][Nphe][Nspe][Nlys][Nphe][Nspe][Nlys][Nphe][Nspe]-NH2) in terms of MIC Staphylococcus aureus VAN1 is 4.5

The reported value for C[C@@H](c1ccccc1)N(CC(N)=O)C(=O)CN(C(=O)CN(CCCCN)C(=O)CN(C(=O)CN(C(=O)CN(CCCCN)C(=O)[C@@H]1CCCN1C(=O)CN(C(=O)CN(CCCCN)C(=O)CN(C(=O)CN(C(=O)CNCCCCN)[C@@H](C)c1ccccc1)[C@@H](C)c1ccccc1)[C@@H](C)c1ccccc1)[C@@H](C)c1ccccc1)[C@@H](C)c1ccccc1)[C@@H](C)c1ccccc1 [1-Pro6] (H-[Nlys][Nspe][Nspe][Nlys][Nspe]P[Nlys][Nspe][Nspe][Nlys][Nspe][Nspe]-NH2) in terms of MIC Staphylococcus aureus VAN1 is 4.6

The reported value for NCCCCNCC(=O)N(CC(=O)N(CC(=O)N(CCCCN)CC(=O)N(CC(=O)N(CC(=O)N(CCCCN)CC(=O)N(CC(=O)N(CC(=O)N(CCCCN)CC(=O)N(CC(=O)N(CC(N)=O)Cc1ccccc1)Cc1ccccc1)Cc1ccccc1)Cc1ccccc1)Cc1ccccc1)Cc1ccccc1)Cc1ccccc1)Cc1ccccc1 [1achiral, H-(Nlys-Npm-Npm)4-NH2] (H-[Nlys][Nphe][Nphe][Nlys][Nphe][Nphe][Nlys][Nphe][Nphe][Nlys][Nphe][Nphe]-NH2) in terms of MIC Staphylococcus aureus VAN1 is 4.7

Now, please, on to the next compound.
The reported value for CC(C)[C@H](C)N(CC(=O)N(CC(=O)N(CCCCN)CC(=O)N(CC(=O)N(CC(=O)N(CCCCN)CC(=O)N(CC(=O)N(CC(=O)N(CCCCN)CC(=O)N(CC(=O)N(CC(N)=O)[C@@H](C)c1ccccc1)[C@@H](C)C(C)C)[C@@H](C)c1ccccc1)[C@@H](C)C(C)C)[C@@H](C)c1ccccc1)[C@@H](C)C(C)C)[C@@H](C)c1ccccc1)C(=O)CNCCCCN [1-Nsdp2,5,8,11, H-(Nlys-Nsdp-Nspe)4-NH2] (H-[Nlys][X1][Nspe][Nlys][X1][Nspe][Nlys][X1][Nspe][Nlys][X1][Nspe]-NH2) in terms of MIC Staphylococcus aureus VAN1 is 4.8
